# credit: patent US11066447B2

Test system: A. fumigatus MMX 5280 ATCC MYA-3626
run_description: MIC/MEC assay (CLSI microdilution)
Assay type: cell-based, Aspergillus fumigatus
measurement_setup: Aspergillus fumigatus, 48 h, RPMI plus 0.002% Tween-80, read-out: MIC
Numbered stars: 1 amine (or outer) side, 2 acyl side, 3 side chain; on linkers, the order of the positions; unused ones are H or OH. Square brackets hold non-standard residues; d marks the D form. Peptide text beside a SMILES is read from it. X16 = CC(C)c1cc(-c2cccc(C[C@@H](C(=O)[*:2])N(C)[*:1])c2)ccn1; Hmp(2R,3S) = CC[C@H](C)[C@@H](O)C(=O)O; NMeVal(β-OH) = CN[C@H](C(=O)O)C(C)(C)O; NMeV = CN[C@H](C(=O)O)C(C)C
assay_readout: MIC

Please state recorded MIC (tested on A. fumigatus MMX 5280 ATCC MYA-3626) of CC[C@H](C)[C@@H]1NC(=O)[C@@H]2CCCN2C(=O)[C@H](Cc2cccc(-c3ccnc(C(C)C)c3)c2)N(C)C(=O)[C@H](Cc2ccccc2)NC(=O)[C@H](C(C)C)N(C)C(=O)[C@@H]([C@@H](C)CC)OC(=O)[C@H](C(C)(C)O)N(C)C(=O)[C@H](CC(C)C)NC(=O)[C@H](C(C)C)N(C)C1=O [Compound 16] (cyclo(F[X16]PI[NMeV]L[NMeVal(β-OH)][Hmp(2R,3S)][NMeV]))
> 64 µg/mL

----------
Each entry below carries its recorded MIC.
System: C. albicans MMX 2000 ATCC 10231
run_description: MIC assay (CLSI microdilution)
Type: cell-based
measurement_setup: Candida albicans, ATCC10231, RPMI plus 0.002% Tween-80; read-out: MIC
Numbered stars: 1 amine (or outer) side, 2 acyl side, 3 side chain; on linkers, the order of the positions; unused ones are H or OH. Square brackets hold non-standard residues; d marks the D form. Peptide text beside a SMILES is read from it. ξ: configuration not given here. X8 = CC(=O)N1CCN(c2ccc(-c3cccc(C[C@@H](C(=O)[*:2])N(C)[*:1])c3)cn2)CC1; X21 = CC1CCN(c2cc(-c3cccc(C[C@@H](C(=O)[*:2])N(C)[*:1])c3)ccn2)CC1; X10 = CN([C@@H](Cc1cccc(-c2ccc(N3CCNCC3)nc2)c1)C(=O)[*:2])[*:1]; X15 = CN([C@@H](Cc1cccc(-c2ccc(N3CCOCC3)nc2)c1)C(=O)[*:2])[*:1]; X24 = CN([C@@H](Cc1cccc(-c2ccnc(N3CCOCC3)c2)c1)C(=O)[*:2])[*:1]; X28 = CN([C@@H](Cc1cccc(-c2ccc(C(F)(F)F)cc2)c1)C(=O)[*:2])[*:1]; X31 = CN([C@@H](Cc1cccc(-c2cccc(C(F)(F)F)c2)c1)C(=O)[*:2])[*:1]; X14 = CN([C@@H](Cc1cccc(-c2ccc3ncccc3c2)c1)C(=O)[*:2])[*:1]; X29 = CN([C@@H](Cc1cccc(-c2ccc(F)cc2)c1)C(=O)[*:2])[*:1]; Hmp(2R,3S) = CC[C@H](C)[C@@H](O)C(=O)O; NMeVal(β-OH) = CN[C@H](C(=O)O)C(C)(C)O; X6 = CCC(C)[C@@H](O[*:1])C(=O)[*:2]; Ile(3ξ) = CCC(C)[C@H](N)C(=O)O; NMeV = CN[C@H](C(=O)O)C(C)C
Numeric answer only, unit mg/L assumed.

// known answers, use as guide
{"molecule": "CC[C@H](C)[C@@H]1NC(=O)[C@@H]2CCCN2C(=O)[C@H](Cc2cccc(-c3ccc(N4CCN(C(C)=O)CC4)nc3)c2)N(C)C(=O)[C@H](Cc2ccccc2)NC(=O)[C@H](C(C)C)N(C)C(=O)[C@@H]([C@@H](C)CC)OC(=O)[C@H](C(C)(C)O)N(C)C(=O)[C@H](CC(C)C)NC(=O)[C@H](C(C)C)N(C)C1=O [Compound 32] (cyclo(F[X8]PI[NMeV]L[NMeVal(β-OH)][Hmp(2R,3S)][NMeV]))", "MIC [mg/L]": 0.03}
{"molecule": "CC[C@H](C)[C@@H]1NC(=O)[C@@H]2CCCN2C(=O)[C@H](Cc2cccc(-c3ccc(C(F)(F)F)cc3)c2)N(C)C(=O)[C@H](Cc2ccccc2)NC(=O)[C@H](C(C)C)N(C)C(=O)[C@@H]([C@@H](C)CC)OC(=O)[C@H](C(C)(C)O)N(C)C(=O)[C@H](CC(C)C)NC(=O)[C@H](C(C)C)N(C)C1=O [Compound 3] (cyclo(F[X28]PI[NMeV]L[NMeVal(β-OH)][Hmp(2R,3S)][NMeV]))", "MIC [mg/L]": 0.12}
{"molecule": "CC[C@H](C)[C@@H]1NC(=O)[C@@H]2CCCN2C(=O)[C@H](Cc2cccc(-c3ccc(F)cc3)c2)N(C)C(=O)[C@H](Cc2ccccc2)NC(=O)[C@H](C(C)C)N(C)C(=O)[C@@H]([C@@H](C)CC)OC(=O)[C@H](C(C)(C)O)N(C)C(=O)[C@H](CC(C)C)NC(=O)[C@H](C(C)C)N(C)C1=O [Compound 1] (cyclo(F[X29]PI[NMeV]L[NMeVal(β-OH)][Hmp(2R,3S)][NMeV]))", "MIC [mg/L]": 0.015}
{"molecule": "CC[C@H](C)[C@@H]1NC(=O)[C@@H]2CCCN2C(=O)[C@H](Cc2cccc(-c3ccc(N4CCOCC4)nc3)c2)N(C)C(=O)[C@H](Cc2ccccc2)NC(=O)[C@H](C(C)C)N(C)C(=O)[C@@H]([C@@H](C)CC)OC(=O)[C@H](C(C)(C)O)N(C)C(=O)[C@H](CC(C)C)NC(=O)[C@H](C(C)C)N(C)C1=O [Compound 24] (cyclo(F[X15]PI[NMeV]L[NMeVal(β-OH)][Hmp(2R,3S)][NMeV]))", "MIC [mg/L]": 0.03}
{"molecule": "CCC(C)[C@@H]1NC(=O)[C@@H]2CCCN2C(=O)[C@H](Cc2cccc(-c3ccc4ncccc4c3)c2)N(C)C(=O)[C@H](Cc2ccccc2)NC(=O)[C@H](C(C)C)N(C)C(=O)[C@@H](C(C)CC)OC(=O)[C@H](C(C)(C)O)N(C)C(=O)[C@H](CC(C)C)NC(=O)[C@H](C(C)C)N(C)C1=O (stereo partly drawn) [Compound 18] (cyclo(F[X14]P[Ile(3ξ)][NMeV]L[NMeVal(β-OH)][X6][NMeV]))", "MIC [mg/L]": 0.03}
{"molecule": "CC[C@H](C)[C@@H]1NC(=O)[C@@H]2CCCN2C(=O)[C@H](Cc2cccc(-c3ccnc(N4CCOCC4)c3)c2)N(C)C(=O)[C@H](Cc2ccccc2)NC(=O)[C@H](C(C)C)N(C)C(=O)[C@@H]([C@@H](C)CC)OC(=O)[C@H](C(C)(C)O)N(C)C(=O)[C@H](CC(C)C)NC(=O)[C@H](C(C)C)N(C)C1=O [Compound 21] (cyclo(F[X24]PI[NMeV]L[NMeVal(β-OH)][Hmp(2R,3S)][NMeV]))", "MIC [mg/L]": 0.015}
{"molecule": "CC[C@H](C)[C@@H]1NC(=O)[C@@H]2CCCN2C(=O)[C@H](Cc2cccc(-c3ccc(N4CCNCC4)nc3)c2)N(C)C(=O)[C@H](Cc2ccccc2)NC(=O)[C@H](C(C)C)N(C)C(=O)[C@@H]([C@@H](C)CC)OC(=O)[C@H](C(C)(C)O)N(C)C(=O)[C@H](CC(C)C)NC(=O)[C@H](C(C)C)N(C)C1=O [Compound 30] (cyclo(F[X10]PI[NMeV]L[NMeVal(β-OH)][Hmp(2R,3S)][NMeV]))", "MIC [mg/L]": 0.015}
{"molecule": "CC[C@H](C)[C@@H]1NC(=O)[C@@H]2CCCN2C(=O)[C@H](Cc2cccc(-c3cccc(C(F)(F)F)c3)c2)N(C)C(=O)[C@H](Cc2ccccc2)NC(=O)[C@H](C(C)C)N(C)C(=O)[C@@H]([C@@H](C)CC)OC(=O)[C@H](C(C)(C)O)N(C)C(=O)[C@H](CC(C)C)NC(=O)[C@H](C(C)C)N(C)C1=O [Compound 4] (cyclo(F[X31]PI[NMeV]L[NMeVal(β-OH)][Hmp(2R,3S)][NMeV]))", "MIC [mg/L]": 0.12}

# evaluate next
Item under review: CC[C@H](C)[C@@H]1NC(=O)[C@@H]2CCCN2C(=O)[C@H](Cc2cccc(-c3ccnc(N4CCC(C)CC4)c3)c2)N(C)C(=O)[C@H](Cc2ccccc2)NC(=O)[C@H](C(C)C)N(C)C(=O)[C@@H]([C@@H](C)CC)OC(=O)[C@H](C(C)(C)O)N(C)C(=O)[C@H](CC(C)C)NC(=O)[C@H](C(C)C)N(C)C1=O [Compound 23] (cyclo(F[X21]PI[NMeV]L[NMeVal(β-OH)][Hmp(2R,3S)][NMeV])) . Reported MIC?
0.06
